# Target of assay: T1, VDAC1 on the surface of human umbilical vein endothelial cells (HUVEC) (human, UniProt P21796 2-283)
# T1 construct: Endogenous protein on primary HUVEC; The assays were done on whole cells; also called K5 receptor on HUVEC; plasma membrane VDAC1
# T1 sequence (P21796 2-283): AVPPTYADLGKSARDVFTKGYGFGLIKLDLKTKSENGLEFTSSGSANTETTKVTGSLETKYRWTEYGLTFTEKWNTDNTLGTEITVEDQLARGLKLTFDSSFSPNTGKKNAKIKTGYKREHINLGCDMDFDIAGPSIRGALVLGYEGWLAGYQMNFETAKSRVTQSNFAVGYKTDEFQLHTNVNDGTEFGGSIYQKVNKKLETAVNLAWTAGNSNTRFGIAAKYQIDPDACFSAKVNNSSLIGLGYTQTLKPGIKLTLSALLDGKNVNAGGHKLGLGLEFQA
# Test protocol: 125I-K5 saturation binding to HUVEC monolayers at 4 C, fit to the Langmuir isotherm
Measured endpoint: Kd (nM)
Just the number please, in nM, no unit attached.

The binder listed as plasminogen kringle 5 (K5), purified from pepsin digestion of human mini-Pg (ligand, UniProt P00747 481-560, looked up, 125I-labeled Bolton Hunter reagent (labelled form used in the binding assays), domain: kringle 5; Proteolytic fragment (elastase, then pepsin) of purified human Pg 2; also called Pg kringle 5; angiostatin kringle-5) CMFGNGKGYRGKRATTVTGTPCQDWAAQEPHRHSIFTPETNPRAGLEKNYCRNPDGDVGGPWCYTTNPRKLYDYCDVPQC has a reported Kd of 28

These entries and their values trace back to patent US20040096444A1.
